Provide the reported viability, T/C of each item.
Test system: KRAS PDC multicell spheroid viability
Assay: Anticancer human tumor 825966-067-R-J1-PDC patient-derived colon carcinoma cell line growth inhibition [KRAS2]
Settings: second compound 0.1 µM; first compound 0.0316 µM; hits give low values
Use % as the unit, but write only the number.

viability, T/C in this record for CC(=O)OC12COC1CC(O)C1(C)C(=O)C(O)C3=C(C)C(OC(=O)C(O)C(NC(=O)OC(C)(C)C)c4ccccc4)CC(O)(C(OC(=O)c4ccccc4)C21)C3(C)C (stereo not given) + C=CC(=O)N1CCN(c2nc(OCC3CCCN3C)nc3c2CCN(c2cccc4cccc(C)c24)C3)CC1CC#N : 29.6

viability, T/C in this record for O=C(c1cc(Cc2n[nH]c(=O)c3ccccc23)ccc1F)N1CCN(C(=O)C2CC2)CC1 + COc1cc2nc(C)nc(NC(C)c3cc(N)cc(C(F)(F)F)c3)c2cc1OC1CCOC1 : 84.2

viability, T/C in this record for COc1cc(Nc2ncc3c(n2)-c2ccc(Cl)cc2C(c2c(F)cccc2OC)=NC3)ccc1C(=O)O + C=CC(=O)N1CCN(c2nc(OCC3CCCN3C)nc3c2CCN(c2cccc4cccc(C)c24)C3)CC1CC#N : 129

viability, T/C in this record for CC1OCC2(CCN(c3cnc(Sc4ccnc(N)c4Cl)c(N)n3)CC2)C1N (stereo not given) + C=CC(=O)N1CCN(c2nc(=O)n(-c3c(C)ccnc3C(C)C)c3nc(-c4c(O)cccc4F)c(F)cc23)C(C)C1 : 78.4

viability, T/C in this record for CCNC(=O)CC1N=C(c2ccc(Cl)cc2)c2cc(OC)ccc2-n2c(C)nnc21 (stereo not given) + C=CC(=O)N1CCN(c2nc(OCC3CCCN3C)nc3c2CCN(c2cccc4cccc(C)c24)C3)CC1CC#N : 79.5

---

Provide the reported viability, T/C of each item.
Test system: KRAS PDC multicell spheroid viability
Assay: Anticancer human tumor 825966-067-R-J1-PDC cell line growth inhibition [KRAS2];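 note: spheroids exposed to compounds for 7 days; 100% = DMSO vehicle control viability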
Conditions: second compound 0.0316 µM; first compound 0.1 µM; hits give low values
Use % as the unit, but write only the number.

Form field viability, T/C for item COc1cc2nccc(Oc3ccc(NC(=O)C4(C(=O)Nc5ccc(F)cc5)CC4)cc3)c2cc1OC + C=CC(=O)N1CCN(c2nc(OCC3CCCN3C)nc3c2CCN(c2cccc4cccc(C)c24)C3)CC1CC#N on KRAS PDC multicell spheroid viability: 106

Form field viability, T/C for item CN(C)C/C=C/C(=O)Nc1cc2c(Nc3ccc(F)c(Cl)c3)ncnc2cc1O[C@H]1CCOC1 + C=CC(=O)N1CCN(c2nc(OCC3CCCN3C)nc3c2CCN(c2cccc4cccc(C)c24)C3)CC1CC#N on KRAS PDC multicell spheroid viability: 99.7

Form field viability, T/C for item Cn1ncnc1[C@H]1c2n[nH]c(=O)c3cc(F)cc(c23)N[C@@H]1c1ccc(F)cc1 + C=CC(=O)N1CCN(c2nc(OCC3CCCN3C)nc3c2CCN(c2cccc4cccc(C)c24)C3)CC1CC#N on KRAS PDC multicell spheroid viability: 82.5

Form field viability, T/C for item COC(=O)c1ccc2c(C(=Nc3ccc(N(C)C(=O)CN4CCN(C)CC4)cc3)c3ccccc3)c(O)[nH]c2c1 + C=CC(=O)N1CCN(c2nc(OCC3CCCN3C)nc3c2CCN(c2cccc4cccc(C)c24)C3)CC1CC#N on KRAS PDC multicell spheroid viability: 94.9

Form field viability, T/C for item CC(C)NCC(C(=O)N1CCN(c2ncnc3c2C(C)CC3O)CC1)c1ccc(Cl)cc1 (stereo unspecified) + C=CC(=O)N1CCN(c2nc(OCC3CCCN3C)nc3c2CCN(c2cccc4cccc(C)c24)C3)CC1CC#N on KRAS PDC multicell spheroid viability: 114

Form field viability, T/C for item COc1cc(Nc2ncc3c(n2)-c2ccc(Cl)cc2C(c2c(F)cccc2OC)=NC3)ccc1C(=O)O + C=CC(=O)N1CCN(c2nc(OCC3CCCN3C)nc3c2CCN(c2cccc4cccc(C)c24)C3)CC1CC#N on KRAS PDC multicell spheroid viability: 129

Form field viability, T/C for item CCN1CCN(Cc2ccc(Nc3ncc(F)c(-c4cc(F)c5nc(C)n(C(C)C)c5c4)n3)nc2)CC1 + C=CC(=O)N1CCN(c2nc(OCC3CCCN3C)nc3c2CCN(c2cccc4cccc(C)c24)C3)CC1CC#N on KRAS PDC multicell spheroid viability: 113

Form field viability, T/C for item CC(C)n1nc(-c2ccc3oc(N)nc3c2)c2c(N)ncnc21 + C=CC(=O)N1CCN(c2nc(OCC3CCCN3C)nc3c2CCN(c2cccc4cccc(C)c24)C3)CC1CC#N on KRAS PDC multicell spheroid viability: 141

Form field viability, T/C for item Cn1nccc1Nc1nccc(-c2cc3c(s2)C(C)(C)N(CCN2CCOCC2)C3=O)n1 + C=CC(=O)N1CCN(c2nc(OCC3CCCN3C)nc3c2CCN(c2cccc4cccc(C)c24)C3)CC1CC#N on KRAS PDC multicell spheroid viability: 91.1

Form field viability, T/C for item O=C(c1cc(Cc2n[nH]c(=O)c3ccccc23)ccc1F)N1CCN(C(=O)C2CC2)CC1 + C=CC(=O)N1CCN(c2nc(OCC3CCCN3C)nc3c2CCN(c2cccc4cccc(C)c24)C3)CC1CC#N on KRAS PDC multicell spheroid viability: 119

Form field viability, T/C for item CC1OCC2(CCN(c3cnc(Sc4ccnc(N)c4Cl)c(N)n3)CC2)C1N (stereo unspecified) + C=CC(=O)N1CCN(c2nc(OCC3CCCN3C)nc3c2CCN(c2cccc4cccc(C)c24)C3)CC1CC#N on KRAS PDC multicell spheroid viability: 97
